Measured melting point by item
measurement-label: melting point

| compound | measurement-label | endpoint-result |
| --- | --- | --- |
| CCC(CC)[C@@H](CO)NS(=O)(=O)c1ccc(Cl)s1 | melting point | 115 to 118 °C |
| O=c1oc(C(F)(F)F)nc(-c2ccccc2)c1-c1ccccc1 | melting point | 118 °C |
| COC(=O)c1cccc(Cc2ccc3[nH]c(-c4ccc5c(c4)OCO5)nc3c2)c1 | melting point | 122 to 124 °C |
| Cn1cc2c(c1)-c1ccc(Cl)cc1C(c1ccccc1F)=NC2 | melting point | 142 to 144 °C |
| CC(C)OC(=O)Cn1c(=O)n(C)c(=O)n(-c2cc(-n3c(=O)n4n(c3=S)CCCC4)c(F)cc2Cl)c1=O | melting point | 136 to 142 °C |
| O=C1c2ccccc2C(=O)N1OCc1ccco1 | melting point | 145 °C |
| COc1cc(C(=O)O)ccc1Cc1cn(CCC(N)=O)c2ccc(C(=O)NCC3CCCC3)cc12 | melting point | 129 to 131 °C |
| COc1cccc2c1C[C@H]1C[C@@H](CN3CCC(O)(c4ccc(Cl)cc4)CC3)CN(C)[C@@H]1C2 | melting point | 202 to 204 °C |
| CCc1ccnc2cc(OC)c(O)cc12 | melting point | 200 to 202 °C |
| O=C(O)C=C1COc2ccccc2C1=O | melting point | 134 to 136 °C |
| CCOC(=O)Cn1c(=O)c(=O)[nH]c2cc(C(F)(F)F)c(-n3c(C)ccc3C)cc21 | melting point | 262 to 263 °C |
| CCOC(=O)c1cc(CC)cnc1CNC(C)(C(N)=O)C(C)C (stereo not drawn) | melting point | 68 to 72 °C |
| O=C(CCc1cnn2c(=O)[nH]cnc12)NCCCN1CCCC1=O | melting point | 180 to 181 °C |
| CN(C)C(=O)c1ccc(C(=O)O)c(S(=O)(=O)NC(C)(C)C)c1 | melting point | > 260 °C |
| Nc1nc(N)c(CCCNc2ccc(C(=O)N[C@@H](CCC(=O)O)C(=O)O)cc2F)c(=O)[nH]1 | melting point | > 175 °C |
| CCOC(=O)C(=O)Nc1ccc(Br)cc1[N+](=O)[O-] | melting point | 168 to 169 °C |
| C=C(C)C(=O)Oc1cc(C(=O)OCC)cc(O)c1O | melting point | 106 to 108 °C |
| CN(Cc1ccccc1)C(=O)Nc1ccc(CN2C(=O)C3CCCC3N(C(=O)CN3C(=O)c4ccccc4C3=O)c3ccccc32)cc1 (stereo not drawn) | melting point | 156 to 158 °C |
| COc1ccc(C#Cc2cccc(CN(O)C(C)=O)c2)cc1 | melting point | 124 to 126 °C |
| COCCNC(=O)c1cccc(-c2ccc(F)c3cc(Cc4cc(F)cc(Cl)c4)sc23)c1 | melting point | 90 to 110 °C |
| CCCc1c(/C=C/c2ccccc2C)nc2ccc(C(=O)O)cn2c1=O | melting point | 190 to 191 °C |
| O=Cc1ccc2c3cccc4cccc(c5cccc1c52)c43 | melting point | 230 °C |
| Cc1nc2cc(NCC(=O)C3(C)CC3)ccc2s1 | melting point | 116 to 120 °C |
| O=C(NCCCCN1CCC(c2cccc3ccccc23)CC1)c1ccc(NC(=O)c2ccc(Cl)cc2)cc1 | melting point | 264 °C |
| CN(C)C(=O)c1ccc([N+](=O)[O-])cc1S(=O)(=O)Cl | melting point | 129 to 131 °C |
| O=C(O)CNS(=O)(=O)c1ccc(N2CCN(c3ccccc3)CC2)cc1 | melting point | 120 to 124 °C |
| COc1ccc2c(c1)C(=NOCCN(C)C)c1c-2c(N2CCNCC2)nc2ccccc12 | melting point | 84 to 86 °C |
| Cc1c(C(=O)O)sc2c(Br)csc12 | melting point | 280 to 282 °C |
| COC(=O)c1c(C)nc(C)c(C(=O)O)c1-c1ccccc1[N+](=O)[O-] | melting point | 232 to 233 °C |
| COC1=C(OC)C(=O)c2c(C#N)cccc2C1=O | melting point | 171 to 172 °C |
| CN1C2CCC1[C@H](CO)[C@@H](c1cccs1)C2 (stereo partly drawn) | melting point | 154 to 158 °C |
| CS(=O)(=O)N[C@@H]1CCCC[C@H]1Nc1nc(Nc2ccc3c(c2)CN(CCO)CCS3)ncc1Cl | melting point | 76 to 86 °C |
| COC(=O)C1=C(C)NC(c2c(F)cc(F)cc2F)=NC1c1ccc(F)cc1Cl (stereo not drawn) | melting point | 112 to 114 °C |
| CCc1cc(C)c(Br)c(CC)c1-c1c(OC(=O)OC)c(C)nn(C)c1=O | melting point | 113 to 115 °C |
| Clc1ccc(Nc2cncc(-n3cccn3)n2)cc1 | melting point | 155 to 157 °C |
| CCOC(=O)C(=O)c1c[nH]c2ccc(CNS(C)(=O)=O)cc12 | melting point | 218 to 220 °C |
| COc1cc(Nc2c(C#N)cnc3cc(-c4ccc(CNCCS(C)(=O)=O)o4)ccc23)c(Cl)cc1Cl | melting point | 171 to 174 °C |
| Oc1nc(S)n(-c2ccccc2)n1 | melting point | 223 to 226 °C |
